Source listed as patent US20170275287A1.

- procedure-details: PK/PD study: whole blood JB6121 after 7 days oral dosing
- Type: in vivo, Sprague-Dawley rats
- run-conditions: Sprague-Dawley, rat, whole blood; 6.25 mg/kg PO daily x7 days, Day 7, 3 h
result-type: concentration at 3 h (ng/mL)
API: value field is a number in ng/mL; no unit string.

Can you share its concentration at 3 h? I mean this molecule: CN1CCN(c2nc(NCCN3CCOCC3)c3nc(Cl)c(NCCN4CCOCC4)nc3n2)CC1
94.8

----------
- procedure-details: PK/PD study: whole blood JB6121 after 7 days oral dosing
- Type: in vivo, Sprague-Dawley rats
- run-conditions: Sprague-Dawley, rat, whole blood; 6.25 mg/kg PO daily x7 days, Day 7
result-type: Tmax (h)
API: value field is a number in h; no unit string.

Can you share its Tmax? I mean this compound: CN1CCN(c2nc(NCCN3CCOCC3)c3nc(Cl)c(NCCN4CCOCC4)nc3n2)CC1
3.2

----------
- procedure-details: PK/PD study: whole blood JB6121 after 7 days oral dosing
- Type: in vivo, Sprague-Dawley rats
- run-conditions: Sprague-Dawley, rat, whole blood; 6.25 mg/kg PO daily x7 days, Day 7
result-type: AUC(0-t) (ng·h/mL)
API: value field is a number in ng·h/mL; no unit string.

Can you share its AUC(0-t)? I mean this compound: CN1CCN(c2nc(NCCN3CCOCC3)c3nc(Cl)c(NCCN4CCOCC4)nc3n2)CC1
217

----------
- procedure-details: PK/PD study: whole blood JB6121 after 7 days oral dosing
- Assay type: in vivo, Sprague-Dawley rats
- run-conditions: Sprague-Dawley, rat, whole blood; 1.56 mg/kg PO daily x7 days, Day 7; read-out: AUC Extrap
result-type: AUC (ng·h/mL)
API: value field is a number in ng·h/mL; no unit string.

Can you share its AUC? I mean this compound: CN1CCN(c2nc(NCCN3CCOCC3)c3nc(Cl)c(NCCN4CCOCC4)nc3n2)CC1
231

----------
- procedure-details: Pharmacokinetic study in rats, IV and PO, whole blood (Charles River)
- Format: in vivo, Sprague-Dawley rats
- run-conditions: male, Sprague-Dawley; Rat, IV 2.0 mg/kg, whole blood, 24 h; read-out: T½ (converted)
result-type: half-life
Don't forget the unit after the value.

Can you share its half-life? I mean this compound: CN1CCN(c2nc(NCCN3CCOCC3)c3nc(Cl)c(NCCN4CCOCC4)nc3n2)CC1
583 min

----------
- procedure-details: PK/PD study: whole blood JB6121 after 7 days oral dosing
- Assay type: in vivo, Sprague-Dawley rats
- run-conditions: Sprague-Dawley, rat, whole blood; 25 mg/kg PO daily x7 days, Day 7; read-out: t½ (converted)
result-type: half-life (h)
API: value field is a number in h; no unit string.

Can you share its half-life? I mean this molecule: CN1CCN(c2nc(NCCN3CCOCC3)c3nc(Cl)c(NCCN4CCOCC4)nc3n2)CC1
2.2

----------
- procedure-details: Pharmacokinetic study in rats, IV and PO, whole blood (Charles River)
- Type: in vivo, Sprague-Dawley rats
- run-conditions: male, Sprague-Dawley, whole blood; Rat, IV 2.0 mg/kg; read-out: Vdss
result-type: Vd (L/kg)
API: value field is a number in L/kg; no unit string.

Can you share its Vd? I mean this compound: CN1CCN(c2nc(NCCN3CCOCC3)c3nc(Cl)c(NCCN4CCOCC4)nc3n2)CC1
21.6

----------
- System: hepatocyte
- procedure-details: Hepatocyte viability assay (CEREP)
- Assay type: cell-based
- run-conditions: 24 h at 50 μM
Measured % Hepatocyte viability 24 h at 50 μM values are reported for all entries that follow.

These recorded examples may help you get a feel for the data.
molecule	reading
CCCCNc1nc(NCCN2CCOCC2)c2nc(Cl)c(NCCN3CCOCC3)nc2n1 [JB6140]	59%
COCCN1CCN(c2nc(NCCN3CCOCC3)c3nc(Cl)c(NCCN4CCOCC4)nc3n2)CC1 [JB6160]	47%
Clc1nc2c(NCCN3CCOCC3)nc(NCc3ccccc3)nc2nc1NCCN1CCOCC1 [JB6172]	51%

Can you share its % Hepatocyte viability 24 h at 50 μM? I mean this molecule: CCCCNc1nc(NCCN2CCOCC2)c2nc(SCC)c(NCCN3CCOCC3)nc2n1 [JB6185]
0%

Can you share its % Hepatocyte viability 24 h at 50 μM? I mean this molecule: C[C@@H]1CN(CCNc2nc3nc(N4CCN(C)CC4)nc(NCCN4C[C@@H](C)O[C@@H](C)C4)c3nc2Cl)C[C@H](C)O1 [JB6143]
74%

Can you share its % Hepatocyte viability 24 h at 50 μM? I mean this molecule: CCOc1nc2c(NCCN3CCOCC3)nc(NCc3ccccc3)nc2nc1NCCN1CCOCC1 [JB6180]
13%

----------
- procedure-details: Toxicokinetics of the 7-day tox study
- Type: in vivo, rats
- run-conditions: female, rat, whole blood, po, 100 mg/kg, Day 7, 100 mg/kg oral, Female
result-type: Tmax (h)
API: value field is a number in h; no unit string.

Can you share its Tmax? I mean this molecule: CN1CCN(c2nc(NCCN3CCOCC3)c3nc(Cl)c(NCCN4CCOCC4)nc3n2)CC1
3

----------
- procedure-details: Toxicokinetics of the 7-day tox study
- Assay type: in vivo, rats
- run-conditions: male, rat, whole blood, po, 10 mg/kg, Day 1, 10 mg/kg oral, Male; read-out: T½ (converted)
result-type: half-life (min)
API: value field is a number in min; no unit string.

Can you share its half-life? I mean this molecule: CN1CCN(c2nc(NCCN3CCOCC3)c3nc(Cl)c(NCCN4CCOCC4)nc3n2)CC1
846

----------
- procedure-details: Toxicokinetics of the 7-day tox study
- Format: in vivo, rats
- run-conditions: rat, whole blood, iv; Day 1, 5 mg/kg I.V., Female; read-out: Vdss
result-type: Vd (L/kg)
API: value field is a number in L/kg; no unit string.

Can you share its Vd? I mean this molecule: CN1CCN(c2nc(NCCN3CCOCC3)c3nc(Cl)c(NCCN4CCOCC4)nc3n2)CC1
23.1

----------
- procedure-details: Toxicokinetics of the 7-day tox study
- Assay type: in vivo, rats
- run-conditions: female, rat, whole blood, iv, 5 mg/kg, Day 1, 5 mg/kg I.V., Female
result-type: AUC
Don't forget the unit after the value.

Can you share its AUC? I mean this compound: CN1CCN(c2nc(NCCN3CCOCC3)c3nc(Cl)c(NCCN4CCOCC4)nc3n2)CC1
2210 ng·h/mL

----------
- procedure-details: PK/PD study: whole blood JB6121 after 7 days oral dosing
- Format: in vivo, Sprague-Dawley rats
- run-conditions: Sprague-Dawley, rat, whole blood; 0.39 mg/kg PO daily x7 days, Day 7, 5 h
result-type: concentration at 5 h (ng/mL)
API: value field is a number in ng/mL; no unit string.

Can you share its concentration at 5 h? I mean this compound: CN1CCN(c2nc(NCCN3CCOCC3)c3nc(Cl)c(NCCN4CCOCC4)nc3n2)CC1
6.47

----------
- procedure-details: Toxicokinetics of the 7-day tox study
- Format: in vivo, rats
- run-conditions: male, rat, whole blood, po, 10 mg/kg, Day 1, 10 mg/kg oral, Male
result-type: Cmax

Can you share its Cmax? I mean this molecule: CN1CCN(c2nc(NCCN3CCOCC3)c3nc(Cl)c(NCCN4CCOCC4)nc3n2)CC1
122 ng/mL

----------
- procedure-details: PK/PD study: whole blood JB6121 after 7 days oral dosing
- Type: in vivo, Sprague-Dawley rats
- run-conditions: Sprague-Dawley, rat, whole blood; 1.56 mg/kg PO daily x7 days, Day 7; read-out: t½ (converted)
result-type: half-life

Can you share its half-life? I mean this molecule: CN1CCN(c2nc(NCCN3CCOCC3)c3nc(Cl)c(NCCN4CCOCC4)nc3n2)CC1
21.2 h

----------
- procedure-details: Toxicokinetics of the 7-day tox study
- Format: in vivo, rats
- run-conditions: rat, whole blood, po; Day 1, 30 mg/kg; read-out: calculated oral absolute bioavailability
result-type: bioavailability (%)
API: value field is a number in %; no unit string.

Can you share its bioavailability? I mean this compound: CN1CCN(c2nc(NCCN3CCOCC3)c3nc(Cl)c(NCCN4CCOCC4)nc3n2)CC1
28

----------
- procedure-details: PK/PD study: whole blood JB6121 after 7 days oral dosing
- Assay type: in vivo, Sprague-Dawley rats
- run-conditions: Sprague-Dawley, rat, whole blood; 6.25 mg/kg PO daily x7 days, Day 7, 5 h
result-type: concentration at 5 h (µg/mL)
API: value field is a number in µg/mL; no unit string.

Can you share its concentration at 5 h? I mean this compound: CN1CCN(c2nc(NCCN3CCOCC3)c3nc(Cl)c(NCCN4CCOCC4)nc3n2)CC1 [JB6121]
0.0638
